The origin of these recorded values is PubChem BioAssay (NCI).

- Test system: BT-549 breast
- assay-details: NCI tumour cell line growth inhibition, 48 h
Collected TGI values appear next to each entry.

# molecule, TGI
records = [
    ("CCOC(=O)c1c(N)sc2c1CC(C)CC2 (stereo not drawn)", "> 100 µM"),
    ("CCOP(=O)(OCC)Oc1c(OC)c2[nH]c(C(=O)OC)cc2c2c(C(=O)O)c[nH]c12", "> 100 µM"),
    ("CN1CCC2(CC1)SSC1(CCN(C)CC1)S2", "> 100 µM"),
    ("Cc1ccc2c(C(C[N+](=O)[O-])c3ccccc3)c(-c3ccccc3)[nH]c2c1 (stereo not drawn)", "> 95 µM"),
    ("COC(=O)/C=C1/SC(=Nc2cccc(Cl)c2)N(CCc2c[nH]c3ccc(O)cc23)C1=O", "3.05 µM"),
    ("O=P1(c2ccccc2)C(c2ccccc2)CCC1c1ccccc1 (stereo not drawn)", "85.5 µM"),
    ("CC1OC(OC2C(O)COC(OC3C(C)OC(OC4C(OC(=O)[C@]56CCC(C)(C)C[C@@H]5C5=CCC7[C@@]8(C)C[C@H](O)[C@H](OC9OC(CO)C(O)C(O)C9O)[C@@](C)(CO)[C@@H]8CC[C@@]7(C)[C@]5(C)CC6)OCC(O)C4O)C(O)C3O)C2O)C(O)C(O)C1O (stereo partly drawn)", "45.7 µM"),
    ("CC(C)(C)OC(=O)NCC(CNC(=O)OC(C)(C)C)C(N)=O", "> 100 µM"),
    ("CSc1ccc(C2=NN(C(C)=O)C(c3ccc(-c4cc(Cl)c(Cl)cc4Cl)o3)C2)cc1 (stereo not drawn)", "30.8 µM"),
    ("CCC1=C(c2ccc(OC)cc2)C(C)(C)Oc2c1ccc(O)c2CN1CCCC1", "12.7 µM"),
    ("COc1ccc(CCN2CCN(CCCc3ccccc3)CC2)cc1", "> 100 µM"),
    ("COc1cc(CCC[P+](c2ccccc2)(c2ccccc2)c2ccccc2)c(OC)c2c1OCO2", "8.5 µM"),
    ("NCCCCC(NC(=O)C(N)CCCN=C(N)N)C(=O)NC(CCCCN)C(=O)NC(CCCN=C(N)N)C(=O)NC(CCCN=C(N)N)C(=O)NC(CCC(N)=O)C(=O)NC(CCCN=C(N)N)C(=O)NC(CCCN=C(N)N)C(=O)NC(CCCN=C(N)N)C(=O)NCC(=O)NCC(=O)O (stereo not drawn)", "> 50 µM"),
    ("Cc1ccc(OCC2CO2)c(Br)c1 (stereo not drawn)", "0.879 µM"),
    ("O=c1[nH]c(NCc2cccnc2)nc2nc[nH]c12", "> 100 µM"),
    ("COc1ccc(/C=C2\\N=C(N3CCCC(CO)C3)NC2=O)cc1 (stereo not drawn)", "> 100 µM"),
    ("CCCCSC1=N/C(=C\\c2ccccc2O)C(=O)N1", "> 100 µM"),
    ("COC(=O)[C@H](Cc1ccccc1)NC(=O)c1ccc(CNC(=O)/C=C/c2ccc(OCc3ccccc3)cc2)cc1", "57.9 µM"),
]
